- Test system: U937 cells
- Test name: Cytotoxic effects of R9-linked caPCNA peptides, % cell death by flow cytometry
- Assay type: cell-based
- Particulars: compared with unsubstituted R9-caPCNA peptide
- Protocol: R9 refers to a cell penetrating peptide that includes a polyarginine sequence e.g., nine contiguous arginine residues. Alanine substitutions in the caPCNA peptide affect its cytotoxic action. U937 cells were treated with each alanine substituted peptide and the scrambled peptide and % cell death evaluated by flow cytometry.
Experimental endpoint: Effect of alanine substitution on cytotoxic action of the peptide (in words)

// solved cases for Effect of alanine substitution on cytotoxic action of the peptide (in words) follow
{"Substance": "A4-sub. Peptide: R9-linked caPCNA 126-133 peptide with alanine at position 4, P129 (SEQ ID NO: 62) (RRRRRRRRRLGIAEQEY; R9 linked)", "Measured": "increase in cytotoxicity"}
{"Substance": "A2-sub. Peptide: R9-linked caPCNA 126-133 peptide with alanine at position 2, G127 (SEQ ID NO: 60) (RRRRRRRRRLAIPEQEY; R9 linked)", "Measured": "neutral change"}
{"Substance": "A7-sub. Peptide: R9-linked caPCNA 126-133 peptide with alanine at position 7, E132 (SEQ ID NO: 65) (RRRRRRRRRLGIPEQAY; R9 linked)", "Measured": "increase in cytotoxicity"}
{"Substance": "A6-sub. Peptide: R9-linked caPCNA 126-133 peptide with alanine at position 6, Q131 (SEQ ID NO: 64) (RRRRRRRRRLGIPEAEY; R9 linked)", "Measured": "increase in cytotoxicity"}

Field: next substance
Qu. For the substance A5-sub. Peptide: R9-linked caPCNA 126-133 peptide with alanine at position 5, E130 (SEQ ID NO: 63) (RRRRRRRRRLGIPAQEY; R9 linked) , give its measured Effect of alanine substitution on cytotoxic action of the peptide (in words) value.
Ans. neutral change
